# Tested on: trypsin
# Assay notes: Trypsin proteolytic resistance assay
# Condition context: immobilized trypsin-agarose resin
Measurement label: remaining at 7 h, 100 µM (%)

Compound	Measurement label	Val
CC(=O)N[C@@H](CC(N)=O)C(=O)N[C@@H](CC(C)C)C(=O)N[C@@H](CO)C(=O)N[C@@H](CCC(=O)O)C(=O)N[C@@H](CC(C)C)C(=O)N[C@@H](CC(=O)O)C(=O)N[C@@H](CCCNC(=N)N)C(=O)N[C@@H](CC(C)C)C(=O)N[C@@H](CC(C)C)C(=O)N[C@@H](CC(C)C)C(=O)N[C@@H](CCC(=O)O)C(=O)N[C@@H](CC(C)C)C(=O)N[C@@H](CC(N)=O)C(N)=O [LD2, reference compound]	remaining at 7 h, 100 µM	0

Hello, the source for this data is paper PMC11871066, in case you need it.
